Biological target: DDR1 (Homo sapiens, UniProt Q08345)
Sequence (Q08345 19-913): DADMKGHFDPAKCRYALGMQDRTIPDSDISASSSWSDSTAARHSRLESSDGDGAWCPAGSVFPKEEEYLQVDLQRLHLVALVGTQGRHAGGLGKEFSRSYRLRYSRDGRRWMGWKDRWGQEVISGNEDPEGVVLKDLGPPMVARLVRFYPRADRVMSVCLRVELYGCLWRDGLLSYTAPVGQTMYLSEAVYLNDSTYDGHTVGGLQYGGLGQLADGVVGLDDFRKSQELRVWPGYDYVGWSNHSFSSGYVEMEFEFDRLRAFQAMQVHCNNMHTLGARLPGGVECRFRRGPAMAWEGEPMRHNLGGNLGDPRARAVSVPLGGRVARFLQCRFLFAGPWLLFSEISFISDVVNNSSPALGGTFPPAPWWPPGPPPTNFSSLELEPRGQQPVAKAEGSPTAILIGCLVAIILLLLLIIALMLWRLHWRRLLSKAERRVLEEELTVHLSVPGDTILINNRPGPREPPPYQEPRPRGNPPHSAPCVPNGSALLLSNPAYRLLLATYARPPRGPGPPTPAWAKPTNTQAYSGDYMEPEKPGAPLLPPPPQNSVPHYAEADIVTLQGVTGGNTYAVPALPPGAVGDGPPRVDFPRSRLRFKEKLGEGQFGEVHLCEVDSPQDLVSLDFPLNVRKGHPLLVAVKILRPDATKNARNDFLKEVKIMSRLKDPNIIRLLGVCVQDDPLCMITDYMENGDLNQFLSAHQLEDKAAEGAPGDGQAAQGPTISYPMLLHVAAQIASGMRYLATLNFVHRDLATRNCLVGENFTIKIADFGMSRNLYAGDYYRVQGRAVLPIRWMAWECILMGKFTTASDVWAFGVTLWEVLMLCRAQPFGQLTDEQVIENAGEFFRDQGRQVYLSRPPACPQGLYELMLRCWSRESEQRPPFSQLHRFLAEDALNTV
quantity.measured: IC50

Given the entry CC1=C(CC(=O)/C=C/c2cccc(CO)c2)C(=O)C=C2C1=CC=C1[C@@]2(C)CC[C@@]2(C)C3C[C@](C)(C(=O)CCc4nc(C(O)C(O)O)c(C)nc4C)CC[C@]3(C)CC[C@]12C (stereo partly shown) [CP1] , what IC50 was observed with DDR1 (Homo sapiens, UniProt Q08345)? > 30 µM

###

Molecular target: ITK (Homo sapiens, UniProt Q08881)
Sequence (Q08881 1-620): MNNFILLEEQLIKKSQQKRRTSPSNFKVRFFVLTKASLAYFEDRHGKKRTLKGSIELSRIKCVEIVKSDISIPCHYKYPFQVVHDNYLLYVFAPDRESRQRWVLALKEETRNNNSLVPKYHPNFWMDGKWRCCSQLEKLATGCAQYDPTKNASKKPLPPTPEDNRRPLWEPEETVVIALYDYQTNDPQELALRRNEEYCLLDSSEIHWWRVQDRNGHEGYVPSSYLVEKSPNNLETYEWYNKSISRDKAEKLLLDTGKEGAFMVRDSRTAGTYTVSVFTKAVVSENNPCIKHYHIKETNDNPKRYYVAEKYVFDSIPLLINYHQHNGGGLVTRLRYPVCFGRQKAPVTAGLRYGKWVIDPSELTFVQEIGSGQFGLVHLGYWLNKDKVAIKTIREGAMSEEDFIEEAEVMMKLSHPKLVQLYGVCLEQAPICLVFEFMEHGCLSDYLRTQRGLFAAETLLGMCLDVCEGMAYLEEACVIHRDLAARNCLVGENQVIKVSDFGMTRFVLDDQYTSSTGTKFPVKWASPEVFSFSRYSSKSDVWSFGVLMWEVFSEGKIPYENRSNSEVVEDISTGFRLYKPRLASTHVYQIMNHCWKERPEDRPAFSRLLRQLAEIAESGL
quantity.measured: IC50

Report IC50 for CC1=C(CC(=O)/C=C/c2cccc(CO)c2)C(=O)C=C2C1=CC=C1[C@@]2(C)CC[C@@]2(C)C3C[C@](C)(C(=O)CCc4nc(C(O)C(O)O)c(C)nc4C)CC[C@]3(C)CC[C@]12C (stereo partly shown) please. > 30 µM

###

Target: FER (Homo sapiens, UniProt P16591)
Sequence (P16591 whole entry): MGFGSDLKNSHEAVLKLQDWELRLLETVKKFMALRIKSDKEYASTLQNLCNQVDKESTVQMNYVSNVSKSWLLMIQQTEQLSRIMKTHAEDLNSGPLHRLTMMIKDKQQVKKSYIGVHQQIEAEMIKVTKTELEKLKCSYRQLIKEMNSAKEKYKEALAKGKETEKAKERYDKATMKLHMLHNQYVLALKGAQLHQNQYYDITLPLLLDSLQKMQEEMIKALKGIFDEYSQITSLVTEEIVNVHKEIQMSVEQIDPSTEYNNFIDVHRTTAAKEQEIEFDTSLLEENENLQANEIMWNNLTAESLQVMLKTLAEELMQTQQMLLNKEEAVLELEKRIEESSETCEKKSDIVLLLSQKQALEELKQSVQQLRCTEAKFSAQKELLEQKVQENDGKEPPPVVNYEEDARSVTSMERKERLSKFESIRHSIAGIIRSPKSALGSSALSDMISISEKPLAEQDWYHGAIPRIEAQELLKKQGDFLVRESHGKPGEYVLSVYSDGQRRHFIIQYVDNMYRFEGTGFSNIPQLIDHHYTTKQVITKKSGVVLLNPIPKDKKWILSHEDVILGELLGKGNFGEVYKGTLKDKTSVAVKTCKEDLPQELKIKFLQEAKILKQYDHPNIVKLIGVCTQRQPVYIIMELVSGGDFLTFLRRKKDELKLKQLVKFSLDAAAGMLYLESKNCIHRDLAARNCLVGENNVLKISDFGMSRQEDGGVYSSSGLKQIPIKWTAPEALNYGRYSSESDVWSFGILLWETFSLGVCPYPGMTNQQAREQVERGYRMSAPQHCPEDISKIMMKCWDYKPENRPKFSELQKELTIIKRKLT
quantity.measured: IC50

Report IC50 for CC1=C(CC(=O)/C=C/c2cccc(CO)c2)C(=O)C=C2C1=CC=C1[C@@]2(C)CC[C@@]2(C)C3C[C@](C)(C(=O)CCc4nc(C(O)C(O)O)c(C)nc4C)CC[C@]3(C)CC[C@]12C (stereo partly shown) please. > 30 µM

###

Biological target: NTRK1 (Homo sapiens, UniProt P04629)
Sequence (P04629 33-796): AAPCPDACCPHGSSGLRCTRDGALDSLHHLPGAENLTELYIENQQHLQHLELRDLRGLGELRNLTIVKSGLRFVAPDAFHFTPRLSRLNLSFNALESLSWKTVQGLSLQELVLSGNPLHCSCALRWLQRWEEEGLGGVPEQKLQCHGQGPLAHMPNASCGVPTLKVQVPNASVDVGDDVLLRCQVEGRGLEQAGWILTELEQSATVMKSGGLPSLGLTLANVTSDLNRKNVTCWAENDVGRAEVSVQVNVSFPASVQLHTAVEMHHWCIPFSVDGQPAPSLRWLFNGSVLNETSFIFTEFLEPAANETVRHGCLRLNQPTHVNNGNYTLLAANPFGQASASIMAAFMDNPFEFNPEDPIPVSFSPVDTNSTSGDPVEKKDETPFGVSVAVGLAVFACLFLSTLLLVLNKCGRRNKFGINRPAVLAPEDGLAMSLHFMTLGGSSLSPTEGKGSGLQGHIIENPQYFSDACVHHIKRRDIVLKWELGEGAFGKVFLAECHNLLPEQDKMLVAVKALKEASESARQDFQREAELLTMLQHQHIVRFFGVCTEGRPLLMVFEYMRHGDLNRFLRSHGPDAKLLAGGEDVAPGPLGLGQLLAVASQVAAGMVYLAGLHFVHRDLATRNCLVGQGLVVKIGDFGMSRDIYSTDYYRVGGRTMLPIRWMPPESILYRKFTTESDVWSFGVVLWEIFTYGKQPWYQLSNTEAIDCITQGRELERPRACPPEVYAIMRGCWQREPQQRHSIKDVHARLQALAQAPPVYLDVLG
quantity.measured: IC50

Given the entry CC1=C(CC(=O)/C=C/c2cccc(CO)c2)C(=O)C=C2C1=CC=C1[C@@]2(C)CC[C@@]2(C)C3C[C@](C)(C(=O)CCc4nc(C(O)C(O)O)c(C)nc4C)CC[C@]3(C)CC[C@]12C (stereo partly shown) , what IC50 was observed with NTRK1 (Homo sapiens, UniProt P04629)? > 30 µM

###

Molecular target: UniProt:P11362
Sequence (P11362 22-822): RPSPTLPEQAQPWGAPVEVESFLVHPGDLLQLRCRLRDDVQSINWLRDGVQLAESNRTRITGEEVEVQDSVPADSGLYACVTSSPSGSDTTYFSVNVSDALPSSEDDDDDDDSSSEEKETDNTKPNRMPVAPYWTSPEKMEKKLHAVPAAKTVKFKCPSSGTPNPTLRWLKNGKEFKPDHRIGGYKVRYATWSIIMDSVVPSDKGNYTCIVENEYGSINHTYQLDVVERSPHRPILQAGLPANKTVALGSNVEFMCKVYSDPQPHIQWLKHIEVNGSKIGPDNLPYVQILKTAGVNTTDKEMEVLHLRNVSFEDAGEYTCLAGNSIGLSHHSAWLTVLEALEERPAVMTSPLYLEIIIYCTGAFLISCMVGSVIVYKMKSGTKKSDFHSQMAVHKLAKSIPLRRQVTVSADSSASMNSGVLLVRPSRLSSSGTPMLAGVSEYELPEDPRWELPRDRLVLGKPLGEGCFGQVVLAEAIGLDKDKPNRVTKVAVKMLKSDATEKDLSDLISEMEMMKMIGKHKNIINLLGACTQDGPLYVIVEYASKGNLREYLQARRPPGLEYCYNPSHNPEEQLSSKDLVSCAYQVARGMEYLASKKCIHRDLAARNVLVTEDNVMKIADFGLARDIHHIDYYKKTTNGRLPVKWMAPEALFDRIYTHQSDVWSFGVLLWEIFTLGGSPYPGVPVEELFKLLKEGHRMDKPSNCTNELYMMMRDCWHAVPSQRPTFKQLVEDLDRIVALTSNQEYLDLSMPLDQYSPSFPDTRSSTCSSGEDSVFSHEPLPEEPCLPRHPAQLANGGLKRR
pIC50: −log10 of the molar value.
quantity.measured: pIC50

Given the entry CC1=C(CC(=O)/C=C/c2cccc(CO)c2)C(=O)C=C2C1=CC=C1[C@@]2(C)CC[C@@]2(C)C3C[C@](C)(C(=O)CCc4nc(C(O)C(O)O)c(C)nc4C)CC[C@]3(C)CC[C@]12C (stereo partly shown) [CP1] , what pIC50 was observed with UniProt:P11362? < 4.52

These data points were gathered from paper PMC12325182.
